Test system: MS2 coat protein
METHOD SUMMARY: apparent KD of MS2 coat protein; designed switch direction (-1 OFF switch, 1 ON switch): -1; higher = weaker reporter binding
CONDITION: Eterna round: R95; input ligand: microRNA oligo, concentration not stated
EXPERIMENTAL READOUT: apparent KD of MS2 coat protein

POLYMER SEQUENCE: UCGUUGUAAAUCAGGUGAUGUCUGUUAGGAUGGACUUUGACAUGAGGAUCACCCAUGUUGCUUUUUGCCCGUCUUAA [JR_SV3TOV2_Sub045] (puzzle: Sensor v3, turn-off variant 2)
EXPERIMENTAL READOUT: apparent KD of MS2 coat protein
VALUE: 68.5 nM

POLYMER SEQUENCE: GGUGCGUUUGUGAGGAUAUGCUGGUCCUUGGUUCGGCAGAAGGCACAUGAGGAUCACCCAUGUGGUGUCGCUCC [salish99_Bmod_Ex4_050] (puzzle: Brourd's mod of Exclusion 4)
EXPERIMENTAL READOUT: apparent KD of MS2 coat protein
VALUE: 36.4 nM

Please look at the following sequence next.
Could you tell me which apparent KD of MS2 coat protein is on file for CUUCGUAUAGAGGAUAUAGGAUACUUCGGUGUCCUAGAAGGCUGUACAUGAGGAUCACCCAUGUACUUCAGAUC [Exclusion 6 - B - 14:b] (puzzle: Exclusion 6) ?
11.9 nM

* * *

Test system: K4 kissing-loop RNA reporter
METHOD SUMMARY: apparent KD of K4 kissing-loop reporter; higher = weaker reporter binding
CONDITION: Eterna round: R107; input ligand: theophylline 20 uM
EXPERIMENTAL READOUT: apparent KD of K4 kissing-loop reporter
Express the reported value numerically, then name its unit.

Below are worked cases with known answers.
POLYMER SEQUENCE: GUAGGAUGAGGAGGAGGAUGAAUUACUGAAGGAGCGCAAAGAAAUGCAGGUAGGUCGCGGUAAAGAAGUAUAGUGAUGUUAUAUA [SSArgA.E]
TARGET DESC: K4 kissing-loop RNA reporter
EXPERIMENTAL READOUT: apparent KD of K4 kissing-loop reporter
VALUE: 426 nM
--
POLYMER SEQUENCE: AGAGAUAUAUGAGGAUAUGGGUUUGUUAAUGAGUUAGUUUUAGUGUUGUUUGGUUAGUGAUGUUAUUUAGAAGGCGUGAGUGAUG [aatrmullin]
TARGET DESC: K4 kissing-loop RNA reporter
EXPERIMENTAL READOUT: apparent KD of K4 kissing-loop reporter
VALUE: 78.4 nM
--
POLYMER SEQUENCE: AACUGUCAAGGACAACAUUACUGAGGUGAUACCAGGUUUGAGAGGAUCCCUUGGCAGCACCAACUUGCAGUGAUGUUGCAAGUAA [BrourdMod 15 - Jieux - Exclusion - Theophylline A]
TARGET DESC: K4 kissing-loop RNA reporter
EXPERIMENTAL READOUT: apparent KD of K4 kissing-loop reporter
VALUE: 254 nM
--
POLYMER SEQUENCE: UGAUACCAGACUGAUACCAGCGAGUGAUGUUUGUUGAUCAUAAGCAGUCAAAGACUGCUUUGCCCUUGGCAGCAGUCUGGUAUCU [#11 K4 Theophylline B Exclusion]
TARGET DESC: K4 kissing-loop RNA reporter
EXPERIMENTAL READOUT: apparent KD of K4 kissing-loop reporter
VALUE: 334 nM
--
POLYMER SEQUENCE: GUAUAUCGAACUGAUACCAGAGAAUAAAGCAGUGAUGUUGCAUAUAUAAAUAAGACUCGACUCCCUUGGCAGCGGGAAGAUAUAC [On purpose 1]
TARGET DESC: K4 kissing-loop RNA reporter;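 also: bound reporter read as fluorescence of individual clusters on recovered sequencing chips by microscopy, with normalized cluster intensities fitted with a binding model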
EXPERIMENTAL READOUT: apparent KD of K4 kissing-loop reporter
VALUE: 280 nM

Would you mind telling me what apparent KD of K4 kissing-loop reporter value was observed for CAGAACUUGUAUAUAGGGUAUAUAAGAGAUACCAGUCAAAUUAAAGACCCUUGGCAGCUCAGGCGAGUGAUGUUCGCAGGCUAAC [Exclusion Theophylline A GF 17] ?
133 nM

Quick check: apparent KD of K4 kissing-loop reporter of AGUACAAUUGCGGCCGCCACUCAACGCAGAUCAAAGAUCUGCAUUCACUCAGUGAUGUUGAGUGAGAGGACCGGGCAUUUGUACA [Omei KL Tryp B SS B v2] ?
512 nM

Returns the measured apparent KD of K4 kissing-loop reporter for the input sequence. Input: AAUGCAUAGUGAAGGAGCGCGAUUUGCAGUGAUGUUGCAAAUUUAAACAAUCUUAUCUUUUCGCAGGUAGGUCGCACUAUGCAUA [JR_Nu_SSArginiB_Sub021]
80.9 nM

Can you share its apparent KD of K4 kissing-loop reporter? I mean this sequence: UGUGUUUACCUGACUCAGUGAUGUUGAGAAGGAGCGUGCGAAAGCACAGGUAGGUCGCUCAACCUAAAAUUCAGGUGAGCACUAA [#SwitchBubble 11 #K4Early]
263 nM

Look at this sequence and give its reported apparent KD of K4 kissing-loop reporter. `GCCGUACGCAUGGAUACCAGCAAGCAUAGCAGGAAACUGCUAUGCACCAGUGAUGUUGGAUGCCCUUGGCAGCCAUGCGUACGGC`
439 nM

Please look up its apparent KD of K4 kissing-loop reporter: AAGCAGUCACUCGAAGCCAUCGAAGAUGGGCGAGGACCGGUACGGCCGCCACUCGGAGUGAUGUUCCGAGGACUGCAAAAUAAAA [MatMod 4 - Jieux - Exclusion - Tryptophan A]
299 nM

# get_value(readout='apparent KD of K4 kissing-loop reporter', item= UGCUUUAGAAUACAAGGUAUUUACACUGAUACCAGUCAGUUAAAUGACCCUUGGCAGCAGUGUCAGUGAUGUUGACACAACACAU [Theo A Ex t4] )
157 nM

Which apparent KD of K4 kissing-loop reporter value belongs to UGUGAUGUGUAGUGUUAUGUUUUGAGGGAUACCAGAGUGUUUUUAUUCCCUUGGCAGCUUGAGUGAUGUUUGAUGUUGUUGUUGU [knnumullin] ?
213 nM

Query: apparent KD of K4 kissing-loop reporter; subject: UUAGUCUAGAGAGGAUAUCAGUGAUGUUGAUAUCAAGAUCUAAGAUAGAAUUCUAUCUUAGAUCAAUGAGAAGGCUCUAGACAUU [AK1.1 Exc FMN B]
128 nM

Recorded apparent KD of K4 kissing-loop reporter for GUCUUACUAUAGGAUACCAGCAUGCAAGGAGUGAUGUUCCCGUCAUAUGAGGAGUACCGCUGCCCUUGGCAGCCUCUUGUAAGUU [theeternabot_sameState_KL_Theo_B_1] , please?
411 nM

Item under review: UGUAUGUGAUUUGAUACCAGACCAGCUGGUGGAAACUGAGUGAUGUUCAGUUAGGUUUGGGUCCCUUGGCAGCAAAUCGCAUACU [KL-SSTheoB28] . Reported apparent KD of K4 kissing-loop reporter?
134 nM

What does the data say about its apparent KD of K4 kissing-loop reporter? Entry: `UGACUGGACUGAAGGAGCGGGCGAGACAAAGUCUCGAACUCGUAGUGAUGUUAUGAAAUAACCCAGGUAGGUCGCAGUCUAGUCU`
868 nM

What value of measured apparent KD of K4 kissing-loop reporter is listed for UGAUUGGCGAAAGUAGUGAUGUUACGAAUAUAGGAUAUUAGAGGAAUAAGAAGGAUAAAGGAGAAAUAGGUAAAUUGUUGGUUGG [whbob_SS_FMNA__2th169] ?
128 nM

Entry GGCGCCAGGAAAGGAUAUCUAAGUCUAUUAUCAAGAAUUGCCUCAAGAUCGGAGUGAUGUUCCCAGAGAGAAGGUUCUAUCCGCU [theeternabot_exclusion_KL_FMN_B_38] has what apparent KD of K4 kissing-loop reporter?
206 nM

Give the measured apparent KD of K4 kissing-loop reporter of AACCUACGAUCACAAUAGUGAUUGUAGGACUAGGAUAUGCUGAAAAGCAGAAGGAGUGAUGUUCCGUCAUGAAUAACAUGACAAA [FmnAX 3 #OpenEnded #K4Late #CoaxialStacking] .
497 nM

apparent KD of K4 kissing-loop reporter for GGUCGAGUGAUGUUCGAUGUAGUGCAUUCAGAGGAUAUAGGAUGGGCUAGAAGGCUGAAAGGUGCUUCGAGUGAUGUUCGAGGAU [Exclusion FMN A GF 3] ?
115 nM

Report apparent KD of K4 kissing-loop reporter for GAGAAUCUAAUUGAUACCAGAGUAAGAACCAGUGAUGUUGGAAGAUUCCCUAAUAAAUAACUCCCUUGGCAGCGGAAGAGAAUAG [Totally accidental 2] please.
327 nM

// lookup apparent KD of K4 kissing-loop reporter for `GGCACUUUUGGUAGAAAACAUCUACCUCUAUAGGAUAUGCCGAAAGGCAGAAGGAUAGACCUACAGAGUGAUGUUCUGCGUGCCU`
356 nM
